Measured EC50, listed per entry for reference.
- study system: Peroxisome proliferator-activated receptor gamma/Nuclear receptor coactivator 2 (Homo sapiens)
- test method notes: TR-FRET dose response biochemical High Throughput Screening assay for agonists of the steroid receptor coactivator 2 (SRC-2) recruitment by the peroxisome proliferator-activated receptor gamma (PPAR gamma): non-selective agonists. [Related pubchem assays: 1297, 1032 ]
- Format: functional
Calls of active or inactive are those of the source.

Reference set (3 entries):
COc1cccc(C2C(C(=O)c3cc4ccccc4o3)=C(O)C(=O)N2c2cc(C)on2)c1OC (centres undefined) :: 9.84 µM (active)
CC(C)COC(=O)CNc1nnc(S)nc1O :: 3.42 µM (active)
COc1ccc(CC(=O)NNC(=O)COc2ccc3ccccc3c2)cc1 :: 1.93 µM (active)

Attention now shifts to the item below.
Enquiry: Return reported EC50. Input compound: `O=C(CSc1ncnc2c1oc1ccccc12)Nc1cccc(C(F)(F)F)c1`
Return: 23 µM (not active)

====

Measured EC50, listed per entry for reference.
- study system: Protein RecA (Mycobacterium tuberculosis)
- test method notes: Fluorescence Cell-Free Homogeneous Dose Retest to Identify Inhibitors of RecA-Intein Splicing Activity. [Related pubchem assays (depositor defined):AID2097, AID2223, AID489010, AID492950]
- Assay type: functional
Active and inactive are the calls of the source.

CC(C)c1ccc(S(=O)(=O)/N=C2\C=C(NS(=O)(=O)c3ccccc3)C(=O)c3ccccc32)cc1 :: 3.69 µM (active)
COc1ccc(C2CC(c3cccs3)=NN2C(=O)CSC2=NCCS2)cc1 (centres undefined) :: 5.31 µM (active)
Cc1ccc(C2C(C#N)=C(N)Oc3[nH]nc(-c4cccs4)c32)s1 (centres undefined) :: 1.82 µM (active)

Enquiry: Name the recorded EC50 of `Oc1ccc(NC(=S)N=Nc2c(O)[nH]c3ccc(Br)cc23)cc1` , assay system Protein RecA (Mycobacterium tuberculosis).
Return: 13.7 µM (active)

Enquiry: Name the recorded EC50 of `CCOC(=O)Cc1c(O)oc2nnc(C)c-2c1C` , assay system Protein RecA (Mycobacterium tuberculosis).
Return: 19.1 µM (active)

Enquiry: Name the recorded EC50 of CCCCCOP(=O)(OCCCCC)C1(NS(=O)(=O)c2ccccc2)C=CC(=O)c2ccccc21 (centres undefined) , assay system Protein RecA (Mycobacterium tuberculosis).
Return: 2.69 µM (active)

Enquiry: Name the recorded EC50 of `O=c1[nH]cc(O)c(=O)[nH]1` , assay system Protein RecA (Mycobacterium tuberculosis).
Return: 9.27 µM (active)

Enquiry: Name the recorded EC50 of Cc1n[nH]c2c1C(c1c[nH]nc1-c1ccc(F)cc1)C(C#N)=C(N)O2 (centres undefined) , assay system Protein RecA (Mycobacterium tuberculosis).
Return: 3.88 µM (active)

Enquiry: Name the recorded EC50 of `O=C(CN1CCN(S(=O)(=O)c2ccc(Cl)cc2)CC1)Nc1ccc2c(c1)OCO2` , assay system Protein RecA (Mycobacterium tuberculosis).
Return: > 380 µM (inactive)

Enquiry: Name the recorded EC50 of `COc1ccc(CNC(=O)c2c(C)oc3c2C(=O)c2ccccc2C3=O)cc1` , assay system Protein RecA (Mycobacterium tuberculosis).
Return: 5.29 µM (active)

Enquiry: Name the recorded EC50 of `Cc1cc(C)n(-c2ccc([N+](=O)[O-])cc2)n1` , assay system Protein RecA (Mycobacterium tuberculosis).
Return: > 380 µM (inactive)

Enquiry: Name the recorded EC50 of Cc1[nH]n(-c2ccccc2)c(=O)c1C(C[N+](=O)[O-])c1ccc(Br)cc1 (centres undefined) , assay system Protein RecA (Mycobacterium tuberculosis).
Return: 5.73 µM (active)

Enquiry: Name the recorded EC50 of `Cn1c(=O)c([N+](=O)[O-])c(Cl)c2ccccc21` , assay system Protein RecA (Mycobacterium tuberculosis).
Return: 4.25 µM (active)

Enquiry: Name the recorded EC50 of `O=C(CCN1C(=O)/C(=C/c2cccs2)SC1=S)Nc1ccc(C(=O)O)c(O)c1` , assay system Protein RecA (Mycobacterium tuberculosis).
Return: 13.3 µM (active)

====

- study system: Nonstructural protein 1 (Influenza A virus, UniProt Q194T2)
- Sequence (Q194T2 whole entry): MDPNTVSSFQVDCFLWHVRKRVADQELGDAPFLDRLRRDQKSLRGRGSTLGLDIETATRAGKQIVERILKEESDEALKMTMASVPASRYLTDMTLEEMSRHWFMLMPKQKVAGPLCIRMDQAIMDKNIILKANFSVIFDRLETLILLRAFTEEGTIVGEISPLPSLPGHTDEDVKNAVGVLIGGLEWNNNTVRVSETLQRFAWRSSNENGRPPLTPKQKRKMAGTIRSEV
- Assay type: functional, Influenza A virus (A/California/07/2009(H1N1))
Active and inactive are the calls of the source.
Measured IC50, listed per entry for reference.

Reference set (6 entries):
O=C(CN1C(=O)C2CCCCC2C1=O)Nc1nc(-c2ccccn2)cs1 (configuration not stated) :: 16 µM (active)
Cc1ccc(NS(=O)(=O)c2cc([N+](=O)[O-])ccc2NNC(=S)Nc2cccc(Cl)c2)c(C)c1 :: 17 µM (active)
COc1cccc(/C=N/Nc2ccnc(O)n2)c1O :: 10.6 µM (active)
Cc1cc2ccccc2n1CCNC(=O)C(C)Oc1ccccc1 (configuration not stated) :: 64.6 µM (active)
COc1ccc2nc(NN=C(C)c3ccccn3)cc(C)c2c1 :: 7.94 µM (active)
O=[N+]([O-])c1ccc(N=Nc2ccc(O)c3ccccc23)cc1 :: 25.9 µM (active)

Attention now shifts to the item below.
Enquiry: Return reported IC50. Input molecule: `CCOc1ccc(NC2=C(OC)C(=O)c3ccccc3C2=O)cc1`
Return: 7.02 µM (active)

====

- study system: UniProtKB P34949
- Sequence (P34949 whole entry): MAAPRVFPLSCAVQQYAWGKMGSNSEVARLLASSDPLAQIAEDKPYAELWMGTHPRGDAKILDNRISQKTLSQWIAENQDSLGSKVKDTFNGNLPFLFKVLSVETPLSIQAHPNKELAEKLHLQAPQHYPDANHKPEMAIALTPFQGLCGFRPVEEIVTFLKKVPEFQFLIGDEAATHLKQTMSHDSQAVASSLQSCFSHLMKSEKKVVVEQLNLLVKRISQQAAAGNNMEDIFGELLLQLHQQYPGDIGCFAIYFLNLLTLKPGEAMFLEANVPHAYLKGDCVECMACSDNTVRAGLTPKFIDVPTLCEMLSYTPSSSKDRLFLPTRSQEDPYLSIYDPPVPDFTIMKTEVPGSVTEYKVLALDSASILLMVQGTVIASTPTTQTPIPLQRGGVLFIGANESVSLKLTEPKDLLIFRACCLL
- test method notes: MPI inhibition at elevated mannose 6-phosphate – biochemical, fluorescence intensity, high mannose 6-phosphate, primary screen (AID 1220)
The source made the active and inactive calls.
readout type: IC50

O=C(CCN1CCOCC1)c1ccc(Br)cc1 :: 43 µM (active)
CC(C)(C)c1cc(=O)n(-c2ccccc2)[nH]1 :: > 50 µM (not active)
O=c1cc(O)c2sc(Nc3cccc(C(F)(F)F)c3)nc2[nH]1 :: > 50 µM (not active)

Enquiry: Return reported IC50. Input compound: `C/N=c1\scc(C)n1/N=C/c1ccc(O)c(O)c1O`
Return: > 50 µM (not active)

Enquiry: Return reported IC50. Input compound: Oc1c(C(c2ccccn2)N2CCOCC2)ccc2cccnc12 (stereo not given)
Return: > 50 µM (not active)

====

- study system: 72 kDa type IV collagenase (Homo sapiens)
- Sequence (P08253 whole entry): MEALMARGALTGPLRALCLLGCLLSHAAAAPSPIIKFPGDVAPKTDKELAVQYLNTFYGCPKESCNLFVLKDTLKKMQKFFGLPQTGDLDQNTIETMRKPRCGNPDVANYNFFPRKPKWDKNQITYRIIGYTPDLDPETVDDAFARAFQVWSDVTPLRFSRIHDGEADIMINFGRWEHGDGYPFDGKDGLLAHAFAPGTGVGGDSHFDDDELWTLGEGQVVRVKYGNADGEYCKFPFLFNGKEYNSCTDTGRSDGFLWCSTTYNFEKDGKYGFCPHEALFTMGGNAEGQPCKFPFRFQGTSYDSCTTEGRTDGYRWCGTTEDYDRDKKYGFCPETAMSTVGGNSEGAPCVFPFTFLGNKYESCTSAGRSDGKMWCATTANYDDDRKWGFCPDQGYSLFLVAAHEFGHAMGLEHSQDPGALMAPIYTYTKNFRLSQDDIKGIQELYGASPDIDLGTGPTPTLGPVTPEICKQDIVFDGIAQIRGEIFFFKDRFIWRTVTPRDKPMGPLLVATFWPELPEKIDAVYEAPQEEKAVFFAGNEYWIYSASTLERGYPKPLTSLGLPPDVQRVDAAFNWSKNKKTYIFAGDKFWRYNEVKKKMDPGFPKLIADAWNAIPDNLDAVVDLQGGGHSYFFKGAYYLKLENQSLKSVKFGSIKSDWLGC
- test method notes: Dose Response validation of uHTS RPN11 inhibitor hits using a MMP-2 Fluorescence assay.
- Format: functional
The source made the active and inactive calls.
Field 'call' accepts true (1) = active, false (0) = inactive

Enquiry: Can you look up the reported call for CCCCCCCCCCCCCCCC(O)C[N+](C)(C)CCO (stereo not given) for me?
Return: true (1)

Enquiry: Can you look up the reported call for `N#Cc1c(SCC(=O)Nc2nc3ccc(Br)cc3s2)sc2c(O)cc(=O)[nH]c12` for me?
Return: true (1)

Enquiry: Can you look up the reported call for NC(=O)CC(NC(=O)Cc1ccc(Cl)cc1)c1ccc(NC2CCCC2)c([N+](=O)[O-])c1 (stereo not given) for me?
Return: false (0)

Enquiry: Can you look up the reported call for `N#C/C(=C\c1ccc(O)c(O)c1)C(=O)N1CCc2ccccc21` for me?
Return: false (0)

Enquiry: Can you look up the reported call for `Cc1ccc(N2C(=O)NC(=O)/C(=C/c3ccoc3)C2=O)cc1` for me?
Return: true (1)

====

- study system: Histone-lysine N-methyltransferase NSD2 (Homo sapiens)
- Sequence (O96028 whole entry): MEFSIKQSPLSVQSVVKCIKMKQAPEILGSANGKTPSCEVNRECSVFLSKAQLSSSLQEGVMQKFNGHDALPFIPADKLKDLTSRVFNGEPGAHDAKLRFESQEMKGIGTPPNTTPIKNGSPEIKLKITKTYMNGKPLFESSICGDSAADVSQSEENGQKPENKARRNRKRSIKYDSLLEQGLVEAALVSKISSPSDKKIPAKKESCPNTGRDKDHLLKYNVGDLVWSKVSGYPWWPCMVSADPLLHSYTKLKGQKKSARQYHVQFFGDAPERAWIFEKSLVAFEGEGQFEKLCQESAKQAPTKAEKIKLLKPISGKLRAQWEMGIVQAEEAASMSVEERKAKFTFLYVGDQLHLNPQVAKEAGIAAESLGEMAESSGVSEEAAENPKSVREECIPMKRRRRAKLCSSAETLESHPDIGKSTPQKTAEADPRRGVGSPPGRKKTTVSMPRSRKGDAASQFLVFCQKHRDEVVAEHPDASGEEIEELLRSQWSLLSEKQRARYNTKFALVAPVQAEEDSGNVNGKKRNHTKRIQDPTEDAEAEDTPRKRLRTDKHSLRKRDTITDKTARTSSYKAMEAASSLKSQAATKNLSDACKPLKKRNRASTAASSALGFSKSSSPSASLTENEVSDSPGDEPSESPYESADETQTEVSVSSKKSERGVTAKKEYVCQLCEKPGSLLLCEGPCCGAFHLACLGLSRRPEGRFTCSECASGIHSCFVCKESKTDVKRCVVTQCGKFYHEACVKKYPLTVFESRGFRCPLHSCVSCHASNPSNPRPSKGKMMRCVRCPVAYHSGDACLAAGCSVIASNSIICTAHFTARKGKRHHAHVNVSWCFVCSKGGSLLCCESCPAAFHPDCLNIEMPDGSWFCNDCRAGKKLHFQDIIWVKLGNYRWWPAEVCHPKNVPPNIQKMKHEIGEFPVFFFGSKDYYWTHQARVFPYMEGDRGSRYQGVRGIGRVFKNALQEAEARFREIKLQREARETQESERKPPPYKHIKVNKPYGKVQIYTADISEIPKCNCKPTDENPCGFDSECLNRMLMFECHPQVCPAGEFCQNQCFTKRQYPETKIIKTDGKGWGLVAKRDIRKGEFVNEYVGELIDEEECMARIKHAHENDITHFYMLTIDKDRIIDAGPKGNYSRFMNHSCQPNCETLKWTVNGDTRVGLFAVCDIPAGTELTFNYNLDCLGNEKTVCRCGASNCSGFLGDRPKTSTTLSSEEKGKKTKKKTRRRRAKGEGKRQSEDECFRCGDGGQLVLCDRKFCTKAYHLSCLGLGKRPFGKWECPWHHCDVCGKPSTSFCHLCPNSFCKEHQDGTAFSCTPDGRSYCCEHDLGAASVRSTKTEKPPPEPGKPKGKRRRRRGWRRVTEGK
- Assay type: biochemical
The source made the active and inactive calls.
Field 'call' accepts active, inactive

Solved entries:
Cc1ccc(N2C(=O)NC(=O)/C(=C/c3ccoc3)C2=O)cc1 :: active
CC(C)c1ccc(S(=O)(=O)/N=C2\C=C(NS(=O)(=O)c3ccccc3)C(=O)c3ccccc32)cc1 :: active
CCN(CC)CCNS(=O)(=O)c1ccc2c3c(cccc13)C(=O)N2 :: inactive
O=C1C(=O)C(Cl)=C(Cl)C(Cl)=C1Cl :: active

Switching to the query record.
Enquiry: Can you look up the reported call for `CCOc1ccc(NC2=C(OC)C(=O)c3ccccc3C2=O)cc1` for me?
Return: active

====

- System: INS1
- test method notes: INS-1E survival protection against cytokine death – cell-based, luminescence, retest, dose response (AID 449756);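 further: cell death triggered by IL-1 beta plus TNF-alpha plus IFN-gamma mixture; protective hits raise ATP signal compared with cytokine alone wells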
- Type: functional
- measurement parameters: Rattus norvegicus
The source made the active and inactive calls.
readout type: AC50

Nc1c(C(=O)Nc2ccc(S(=O)(=O)N3CCCC3)cc2)sc2nc3cc4c(cc3cc12)CCC4 :: 3.29 µM (active)
Cc1ccccc1OCCn1c(C)nc2ccccc21 :: 8.1 µM (active)
COc1cccc(/C=N/Nc2ccnc(O)n2)c1O :: 0.67 µM (active)

Attention now shifts to the item below.
Enquiry: Return reported AC50. Input compound: `c1ccc(CN2CCN(Cc3c[nH]c4ccccc34)CC2)cc1`
Return: 8.01 µM (active)

====

- study system: Short transient receptor potential channel 4 (Mus musculus)
- Sequence (Q9QUQ5 whole entry): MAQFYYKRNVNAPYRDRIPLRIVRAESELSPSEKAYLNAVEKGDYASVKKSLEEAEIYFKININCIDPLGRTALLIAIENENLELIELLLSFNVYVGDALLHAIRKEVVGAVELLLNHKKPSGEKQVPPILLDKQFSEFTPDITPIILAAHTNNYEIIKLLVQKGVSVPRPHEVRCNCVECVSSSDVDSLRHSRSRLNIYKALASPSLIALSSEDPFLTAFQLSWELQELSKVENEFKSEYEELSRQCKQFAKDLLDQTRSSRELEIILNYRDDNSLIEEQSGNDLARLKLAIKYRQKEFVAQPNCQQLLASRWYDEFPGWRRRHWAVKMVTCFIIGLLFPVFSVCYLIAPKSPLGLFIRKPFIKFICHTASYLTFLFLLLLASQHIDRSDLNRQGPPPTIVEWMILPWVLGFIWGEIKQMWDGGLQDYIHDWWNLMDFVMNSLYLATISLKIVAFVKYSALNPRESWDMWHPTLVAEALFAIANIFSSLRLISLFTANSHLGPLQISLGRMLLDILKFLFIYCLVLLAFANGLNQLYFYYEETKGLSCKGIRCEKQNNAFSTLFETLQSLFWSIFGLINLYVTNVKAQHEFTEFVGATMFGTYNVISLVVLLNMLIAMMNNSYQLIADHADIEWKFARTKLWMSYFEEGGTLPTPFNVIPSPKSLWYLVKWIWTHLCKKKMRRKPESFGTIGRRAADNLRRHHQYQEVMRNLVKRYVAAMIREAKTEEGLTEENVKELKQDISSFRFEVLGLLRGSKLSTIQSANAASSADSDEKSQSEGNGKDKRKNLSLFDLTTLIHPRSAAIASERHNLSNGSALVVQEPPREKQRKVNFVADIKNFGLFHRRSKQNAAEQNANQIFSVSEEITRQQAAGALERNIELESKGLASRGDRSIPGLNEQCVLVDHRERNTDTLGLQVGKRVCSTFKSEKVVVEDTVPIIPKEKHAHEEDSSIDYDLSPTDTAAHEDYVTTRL
- test method notes: calcium entry via TRPC4 opening agents – cell-based, HEK293 TRPC4/mu-opioid, Fluo-4 calcium, dose response (AID 434937)
- Format: functional
Calls of active or inactive are those of the source.
readout type: EC50

Reference set (3 entries):
O=C(O)c1ccc(-c2ccc(/C=N/Nc3ccc([N+](=O)[O-])cc3)o2)cc1 :: 2110 nM (active)
C#Cc1cccc(C(=O)NC2CCCN(C3Cc4ccccc4C3)C2)c1 (configuration not stated) :: 596 nM (active)
CC(C)(C)C(=O)/C=c1\s/c(=C\c2ccc(-c3ccc([N+](=O)[O-])cc3)o2)c(=O)n1CC(=O)NC(N)=O :: 5310 nM (active)

Enquiry: Return reported EC50. Input compound: CC(CN1CCCC(C(N)=O)C1)c1ccccc1 (configuration not stated)
Return: 1190 nM (active)

Enquiry: Return reported EC50. Input compound: CCOc1ccccc1C1CC(c2ccc(Cl)cc2)Nc2nc(N)nn21 (configuration not stated)
Return: 11900 nM (active)

Enquiry: Return reported EC50. Input compound: `CCN(CCCNS(=O)(=O)c1cc(-c2cc(C)no2)ccc1C)Cc1ccccc1`
Return: 299 nM (active)

Enquiry: Return reported EC50. Input compound: CC(N)Cc1c[nH]c2cc3c(cc12)OCCO3 (configuration not stated)
Return: 1330 nM (active)
